Source of measurements: patent US20240166589A1

Provide the reported Relative percentage of QH (40° C., 1M) of each item.
experiment: Oxidation stability (relative percentage of QH) after open storage in a constant temperature bath, HPLC; format: physicochemical; settings: open system, 40° C. and RH 75%, 1 month; relative to initial reduced coenzyme Q10 content as 100
Give the quantity in %, number only.

Q) I am curious: what Relative percentage of QH (40° C., 1M) value has been reported for COc1c(O)c(C)c(C/C=C(\C)CC/C=C(\C)CC/C=C(\C)CC/C=C(\C)CC/C=C(\C)CC/C=C(\C)CC/C=C(\C)CC/C=C(\C)CC/C=C(\C)CCC=C(C)C)c(O)c1OC [Example 2, reduced coenzyme Q10] ?
A) 81.4

Q) I am curious: what Relative percentage of QH (40° C., 1M) value has been reported for COc1c(O)c(C)c(C/C=C(\C)CC/C=C(\C)CC/C=C(\C)CC/C=C(\C)CC/C=C(\C)CC/C=C(\C)CC/C=C(\C)CC/C=C(\C)CC/C=C(\C)CCC=C(C)C)c(O)c1OC [Example 1, reduced coenzyme Q10] ?
A) 88.1

Q) I am curious: what Relative percentage of QH (40° C., 1M) value has been reported for COc1c(O)c(C)c(C/C=C(\C)CC/C=C(\C)CC/C=C(\C)CC/C=C(\C)CC/C=C(\C)CC/C=C(\C)CC/C=C(\C)CC/C=C(\C)CC/C=C(\C)CCC=C(C)C)c(O)c1OC [Example 4, reduced coenzyme Q10] ?
A) 90.1

Q) I am curious: what Relative percentage of QH (40° C., 1M) value has been reported for COc1c(O)c(C)c(C/C=C(\C)CC/C=C(\C)CC/C=C(\C)CC/C=C(\C)CC/C=C(\C)CC/C=C(\C)CC/C=C(\C)CC/C=C(\C)CC/C=C(\C)CCC=C(C)C)c(O)c1OC [Example 3, reduced coenzyme Q10] ?
A) 87.3
